Value source: ChEMBL document CHEMBL4837181

# assayed.target: Solute carrier organic anion transporter family member 1B1 (Homo sapiens)
# Sequence (Q9Y6L6 whole entry): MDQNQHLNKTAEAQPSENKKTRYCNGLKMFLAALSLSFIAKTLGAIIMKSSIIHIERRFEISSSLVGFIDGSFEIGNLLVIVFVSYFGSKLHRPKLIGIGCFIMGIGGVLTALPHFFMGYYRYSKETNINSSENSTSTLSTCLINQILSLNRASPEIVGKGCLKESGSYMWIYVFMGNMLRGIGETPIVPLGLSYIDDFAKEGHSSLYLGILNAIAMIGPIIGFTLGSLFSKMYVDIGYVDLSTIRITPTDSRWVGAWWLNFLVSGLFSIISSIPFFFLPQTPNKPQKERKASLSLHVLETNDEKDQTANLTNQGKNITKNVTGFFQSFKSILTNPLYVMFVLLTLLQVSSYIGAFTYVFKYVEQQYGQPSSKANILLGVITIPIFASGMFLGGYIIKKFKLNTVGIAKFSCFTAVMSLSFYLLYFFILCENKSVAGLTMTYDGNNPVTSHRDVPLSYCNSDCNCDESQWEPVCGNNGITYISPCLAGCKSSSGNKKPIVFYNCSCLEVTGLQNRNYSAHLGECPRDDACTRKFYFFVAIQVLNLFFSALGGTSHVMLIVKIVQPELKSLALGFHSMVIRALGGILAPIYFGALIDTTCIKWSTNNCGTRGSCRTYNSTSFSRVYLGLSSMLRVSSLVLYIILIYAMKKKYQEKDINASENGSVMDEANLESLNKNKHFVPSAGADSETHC
# experiment: Inhibition of OATP1B1 (unknown origin) expressed in HEK293 cells

- given.smiles: "CCOC(=O)[C@@H](Cc1cn(C)c2ccccc12)NC(=O)[C@@H](N)CC(C)C.Cl"
  IC50: "> 50 µM"

###

# experiment: Change in normalised Cmax in rat at 10 mg/kg, po measured upto 72 hrs by LC-MS/MS analysis
# Format: ADME, organism-based
# assay.setup: in vivo
Where a SMILES comes first, the peptide text is derived from it. [ ]: non-standard residue; d: D form. dTrp(1-Me) = Cn1cc(C[C@@H](N)C(=O)O)c2ccccc21
Param threshold (-30%) applies to Activity; output Met when value >= threshold, Not met when value < threshold.

- molecule: "Cl.Cn1cc(C[C@@H](N)C(=O)OCC2CCNCC2)c2ccccc21"
  class.name: "Met"
- molecule: "Cl.Cn1cc(C[C@@H](N)C(=O)OCCC2CCNCC2)c2ccccc21"
  class.name: "Not met"
- molecule: "Cl.Cn1cc(C[C@@H](NC(=O)[C@@H](N)Cc2c[nH]c3ccccc23)C(=O)O)c2ccccc21"
  class.name: "Not met"
- molecule: "CN(C)CCOC(=O)[C@H](N)Cc1cn(C)c2ccccc12.Cl"
  class.name: "Met"
- molecule: "CCOC(=O)[C@@H](Cc1cn(C)c2ccccc12)NC(=O)[C@@H](N)Cc1ccccc1.Cl"
  class.name: "Not met"
- molecule: "CCOC(=O)[C@@H](Cc1cn(C)c2ccccc12)NC(=O)[C@@H](N)[C@@H](C)CC.Cl"
  class.name: "Met"
- molecule: "Cl.Cn1cc(C[C@@H](N)C(=O)OCC(N)C(=O)O)c2ccccc21 (single isomer, unassigned)"
  class.name: "Met"
- molecule: "Cn1cc(C[C@@H](N)C(=O)O)c2ccccc21"
  class.name: "Met"
- molecule: "Cl.Cn1cc(C[C@@H](NC(=O)CN)C(=O)O)c2ccccc21 (H-Gly-[dTrp(1-Me)]-OH)"
  class.name: "Met"

###

# assayed.target: Cytochrome P450 2C19 (Homo sapiens, UniProt P33261)
# Sequence (P33261 whole entry): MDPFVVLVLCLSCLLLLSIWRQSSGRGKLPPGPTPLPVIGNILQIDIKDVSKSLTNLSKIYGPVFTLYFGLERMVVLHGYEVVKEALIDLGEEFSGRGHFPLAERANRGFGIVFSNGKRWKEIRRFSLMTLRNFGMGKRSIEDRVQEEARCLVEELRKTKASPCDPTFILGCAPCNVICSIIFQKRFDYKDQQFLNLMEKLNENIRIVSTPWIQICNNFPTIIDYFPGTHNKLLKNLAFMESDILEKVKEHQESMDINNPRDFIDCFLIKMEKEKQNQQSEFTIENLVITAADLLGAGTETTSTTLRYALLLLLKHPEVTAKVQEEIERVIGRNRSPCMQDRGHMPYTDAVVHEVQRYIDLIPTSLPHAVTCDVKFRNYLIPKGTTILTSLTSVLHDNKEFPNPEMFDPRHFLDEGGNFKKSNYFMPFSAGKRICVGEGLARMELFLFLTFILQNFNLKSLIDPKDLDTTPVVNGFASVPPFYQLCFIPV
# experiment: Inhibition of CYP2C19 in human hepatocytes
pIC50: −log10 of the molar value.

- given.smiles: "CCOC(=O)[C@@H](Cc1cn(C)c2ccccc12)NC(=O)[C@@H](N)CC(C)C.Cl"
  pIC50: 4.33

###

# experiment: Half life in female cynomolgus monkey at 225 mg/kg, po measured on day 1
# Type: ADME, organism-based, Macaca fascicularis
# assay.setup: in vivo

- given.smiles: "Cn1cc(C[C@@H](N)C(=O)O)c2ccccc21"
  half-life: "3.8 h"

###

# experiment: Toxicity in po BID rat assessed as NOAEL
# Format: organism-based
# assay.setup: in vivo
property.name: NOAEL (mg/kg)

- given.smiles: "CCOC(=O)[C@@H](Cc1cn(C)c2ccccc12)NC(=O)[C@@H](N)CC(C)C.Cl"
  property.name: "NOAEL"
  unit.of.measure: "mg/kg"
  value.observed: 60

###

Each item that follows carries a reported Stabilty.
# experiment: Chemical stability of compound in 0.1 N aqueous HCl buffer assessed as compound remaining at pH 1 at 5 uM measured after 1.5 hrs by LC-MS/MS analysis
# Format: physicochemical
# assay.setup: pH 1, 1.5 h
Where a SMILES comes first, the peptide text is derived from it. [ ]: non-standard residue; d: D form. dTrp(1-Me) = Cn1cc(C[C@@H](N)C(=O)O)c2ccccc21
property.name: Stabilty (%)

- molecule: "Cl.Cn1cc(C[C@@H](NC(=O)CN)C(=O)O)c2ccccc21 (H-Gly-[dTrp(1-Me)]-OH)"
  value.observed: 64
- molecule: "CCOC(=O)[C@@H](Cc1cn(C)c2ccccc12)NC(=O)[C@@H](N)CCC(N)=O.Cl"
  value.observed: 73
- molecule: "Cl.Cn1cc(C[C@@H](NC(=O)[C@@H](N)CCC(N)=O)C(=O)O)c2ccccc21"
  value.observed: 65
- molecule: "CCOC(=O)[C@H](N)Cc1cn(C)c2ccccc12.Cl"
  value.observed: 59
- molecule: "Cl.Cn1cc(C[C@@H](NC(=O)[C@H](N)Cc2c[nH]c3ccccc23)C(=O)O)c2ccccc21"
  value.observed: 53
- molecule: "Cl.Cn1cc(C[C@@H](NC(=O)[C@@H](N)Cc2ccccc2)C(=O)O)c2ccccc21"
  value.observed: 96
- molecule: "Cl.Cn1cc(C[C@@H](NC(=O)[C@@H](N)CCC(=O)O)C(=O)O)c2ccccc21"
  value.observed: 99
- molecule: "Cl.Cn1cc(C[C@@H](NC(=O)[C@@H](N)CCCCN)C(=O)O)c2ccccc21"
  value.observed: 89
- molecule: "Cl.Cn1cc(C[C@@H](N)C(=O)OCC2CCNCC2)c2ccccc21"
  value.observed: 36
- molecule: "C[C@H](N)C(=O)N[C@H](Cc1cn(C)c2ccccc12)C(=O)O.Cl"
  value.observed: 100
- molecule: "Cl.Cn1cc(C[C@@H](N)C(=O)OCC(N)C(=O)O)c2ccccc21 (single isomer, unassigned)"
  value.observed: 10
- molecule: "CC(C)C(NC(=O)[C@H](N)Cc1cn(C)c2ccccc12)C(=O)O.Cl (single isomer, unassigned)"
  value.observed: 51
- molecule: "Cl.Cn1cc(C[C@@H](N)C(=O)OCCC2CCOCC2)c2ccccc21"
  value.observed: 52
- molecule: "CN(C)CCOC(=O)[C@H](N)Cc1cn(C)c2ccccc12.Cl"
  value.observed: 3
- molecule: "CC(C)C[C@H](N)C(=O)N[C@H](Cc1cn(C)c2ccccc12)C(=O)O.Cl"
  value.observed: 92
- molecule: "CCOC(=O)[C@@H](Cc1cn(C)c2ccccc12)NC(=O)[C@@H](N)Cc1ccccc1.Cl"
  value.observed: 99
- molecule: "CCOC(=O)[C@@H](Cc1cn(C)c2ccccc12)NC(=O)[C@@H](N)CC(C)C.Cl"
  value.observed: 90
- molecule: "CC(C)[C@H](N)C(=O)N[C@H](Cc1cn(C)c2ccccc12)C(=O)O.Cl"
  value.observed: 98
- molecule: "Cl.Cn1cc(C[C@@H](NC(=O)[C@@H](N)Cc2c[nH]c3ccccc23)C(=O)O)c2ccccc21"
  value.observed: 52

###

# experiment: Half life in male cynomolgus monkey at 15 mg/kg, iv measured on day 1
# Format: ADME, organism-based, Macaca fascicularis
# assay.setup: in vivo

- given.smiles: "Cn1cc(C[C@@H](N)C(=O)O)c2ccccc21"
  half-life: "2 h"

###

# experiment: Chemical stability of compound in simulated intestinal fluid assessed as compound remaining at 5 uM measured after 24 hrs by LC-MS/MS analysis
# Format: ADME, physicochemical
# assay.setup: read-out: Stabilty
Mark YES only when remaining at 24 h, 5 µM stays strictly below 10%. Values equal to the cut-off are NO.

- compound: "CCOC(=O)[C@@H](Cc1cn(C)c2ccccc12)NC(=O)[C@@H](N)[C@@H](C)CC.Cl"
  class.name: "NO"
- compound: "CC[C@H](C)[C@H](N)C(=O)N[C@H](Cc1cn(C)c2ccccc12)C(=O)O.Cl"
  class.name: "YES"
- compound: "CC(C)C[C@H](N)C(=O)N[C@H](Cc1cn(C)c2ccccc12)C(=O)O.Cl"
  class.name: "YES"
- compound: "Cl.Cn1cc(C[C@@H](N)C(=O)N[C@H](Cc2cn(C)c3ccccc23)C(=O)O)c2ccccc21"
  class.name: "NO"
- compound: "Cl.Cn1cc(C[C@@H](N)C(=O)OCCC2CCNCC2)c2ccccc21"
  class.name: "YES"
- compound: "Cl.Cn1cc(C[C@@H](NC(=O)[C@@H](N)Cc2c[nH]c3ccccc23)C(=O)O)c2ccccc21"
  class.name: "NO"
- compound: "C[C@H](N)C(=O)N[C@H](Cc1cn(C)c2ccccc12)C(=O)O.Cl"
  class.name: "NO"
- compound: "CCOC(=O)[C@@H](Cc1cn(C)c2ccccc12)NC(=O)[C@@H](N)CC(C)C.Cl"
  class.name: "NO"
- compound: "CCOC(=O)[C@@H](Cc1cn(C)c2ccccc12)NC(=O)[C@@H](N)CCC(N)=O.Cl"
  class.name: "YES"
- compound: "Cl.Cn1cc(C[C@@H](NC(=O)[C@@H](N)CCC(=O)O)C(=O)O)c2ccccc21"
  class.name: "NO"
- compound: "Cl.Cn1cc(C[C@@H](N)C(=O)OCCC2CCOCC2)c2ccccc21"
  class.name: "YES"
- compound: "CC(C)[C@H](N)C(=O)N[C@H](Cc1cn(C)c2ccccc12)C(=O)O.Cl"
  class.name: "NO"
- compound: "Cl.Cn1cc(C[C@@H](NC(=O)[C@H](N)Cc2c[nH]c3ccccc23)C(=O)O)c2ccccc21"
  class.name: "NO"
- compound: "Cl.Cn1cc(C[C@@H](NC(=O)[C@@H](N)Cc2ccccc2)C(=O)O)c2ccccc21"
  class.name: "YES"
- compound: "Cl.Cn1cc(C[C@@H](NC(=O)[C@@H](N)CCC(N)=O)C(=O)O)c2ccccc21"
  class.name: "YES"
- compound: "CN(C)CCOC(=O)[C@H](N)Cc1cn(C)c2ccccc12.Cl"
  class.name: "YES"
- compound: "CC(C)C(NC(=O)[C@H](N)Cc1cn(C)c2ccccc12)C(=O)O.Cl (single isomer, unassigned)"
  class.name: "NO"
- compound: "Cl.Cn1cc(C[C@@H](N)C(=O)OCC2CCNCC2)c2ccccc21"
  class.name: "YES"
